Reference for the values: patent US8735553

# Experimental Target: P3Z chimeric PD-1 receptor (human)
# Sequence (chain, as listed by the source mutant limits assumed): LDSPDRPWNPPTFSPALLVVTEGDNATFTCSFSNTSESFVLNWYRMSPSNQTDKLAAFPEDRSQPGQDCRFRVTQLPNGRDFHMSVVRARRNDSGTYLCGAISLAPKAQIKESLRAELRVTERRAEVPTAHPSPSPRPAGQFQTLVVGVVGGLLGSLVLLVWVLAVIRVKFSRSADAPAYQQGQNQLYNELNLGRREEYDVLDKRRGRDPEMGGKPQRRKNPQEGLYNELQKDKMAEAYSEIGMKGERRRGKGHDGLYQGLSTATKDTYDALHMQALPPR
# Assay Text: cell-based or functional assay
// values below are reported IL-2 release in HuT78/P3Z, Max inhibition
Assay Endpoint: IL-2 release in HuT78/P3Z, Max inhibition (%)

>>> measurement("hu326-2 G63D (antibody, V domains shown, mAb; constant regions not restated (hu326-1 is IgG2 / kappa); Back mutation to murine) VH: QVQLVQSGSELKKPGASVKVSCKASGYTFTNYGMNWVRQAPGQGLEWMGWINNNNGEPTYAQDFRGRFVFSLDTSASTAYLQISSLKTEDTAVYFCARDVMDYWGQGTTVTVSS VL: DIVLTQSPASLAVSPGQRATITCRASESVDNYGYSFMHWYQQKPGQPPKLLIYRASNLESGVPARFSGSGSRTDFTLTINPVEANDTANYYCQQSKEYPTFGGGTKVEIK")
96.4
>>> measurement("hu326-2 S85N (antibody, V domains shown, mAb; constant regions not restated (hu326-1 is IgG2 / kappa); Back mutation to murine) VH: QVQLVQSGSELKKPGASVKVSCKASGYTFTNYGMNWVRQAPGQGLEWMGWINNNNGEPTYAQGFRGRFVFSLDTSASTAYLQISNLKTEDTAVYFCARDVMDYWGQGTTVTVSS VL: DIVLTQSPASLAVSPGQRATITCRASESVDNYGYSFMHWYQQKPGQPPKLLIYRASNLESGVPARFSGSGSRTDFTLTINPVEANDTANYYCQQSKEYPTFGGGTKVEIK")
95.6
>>> measurement("hu326-2 E46K (antibody, V domains shown, mAb; constant regions not restated (hu326-1 is IgG2 / kappa); Back mutation to murine) VH: QVQLVQSGSELKKPGASVKVSCKASGYTFTNYGMNWVRQAPGQGLKWMGWINNNNGEPTYAQGFRGRFVFSLDTSASTAYLQISSLKTEDTAVYFCARDVMDYWGQGTTVTVSS VL: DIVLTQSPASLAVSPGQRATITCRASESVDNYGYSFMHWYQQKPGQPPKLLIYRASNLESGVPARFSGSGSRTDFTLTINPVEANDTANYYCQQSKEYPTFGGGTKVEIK")
95.2
